# assay.info: Plasma concentration in rat at 10 mg/kg, po measured after 4 hrs
# Format: ADME, organism-based
quantity.name: concentration at 4 h (ng/mL)
Numbers only, in ng/mL.

Query :: Reported concentration at 4 h, compound CCc1cc2c(cc1N1CCC(N3CCN(CCCC#Cc4cccc5c4CN(C4CCC(=O)NC4=O)C5=O)CC3)CC1)C(C)(C)c1[nH]c3cc(C#N)ccc3c1C2=O (stereo unspecified) : ____
Result :: 100

###

# assayed.system: ALK tyrosine kinase receptor (Homo sapiens, UniProt Q9UM73)
# Sequence (Q9UM73 whole entry): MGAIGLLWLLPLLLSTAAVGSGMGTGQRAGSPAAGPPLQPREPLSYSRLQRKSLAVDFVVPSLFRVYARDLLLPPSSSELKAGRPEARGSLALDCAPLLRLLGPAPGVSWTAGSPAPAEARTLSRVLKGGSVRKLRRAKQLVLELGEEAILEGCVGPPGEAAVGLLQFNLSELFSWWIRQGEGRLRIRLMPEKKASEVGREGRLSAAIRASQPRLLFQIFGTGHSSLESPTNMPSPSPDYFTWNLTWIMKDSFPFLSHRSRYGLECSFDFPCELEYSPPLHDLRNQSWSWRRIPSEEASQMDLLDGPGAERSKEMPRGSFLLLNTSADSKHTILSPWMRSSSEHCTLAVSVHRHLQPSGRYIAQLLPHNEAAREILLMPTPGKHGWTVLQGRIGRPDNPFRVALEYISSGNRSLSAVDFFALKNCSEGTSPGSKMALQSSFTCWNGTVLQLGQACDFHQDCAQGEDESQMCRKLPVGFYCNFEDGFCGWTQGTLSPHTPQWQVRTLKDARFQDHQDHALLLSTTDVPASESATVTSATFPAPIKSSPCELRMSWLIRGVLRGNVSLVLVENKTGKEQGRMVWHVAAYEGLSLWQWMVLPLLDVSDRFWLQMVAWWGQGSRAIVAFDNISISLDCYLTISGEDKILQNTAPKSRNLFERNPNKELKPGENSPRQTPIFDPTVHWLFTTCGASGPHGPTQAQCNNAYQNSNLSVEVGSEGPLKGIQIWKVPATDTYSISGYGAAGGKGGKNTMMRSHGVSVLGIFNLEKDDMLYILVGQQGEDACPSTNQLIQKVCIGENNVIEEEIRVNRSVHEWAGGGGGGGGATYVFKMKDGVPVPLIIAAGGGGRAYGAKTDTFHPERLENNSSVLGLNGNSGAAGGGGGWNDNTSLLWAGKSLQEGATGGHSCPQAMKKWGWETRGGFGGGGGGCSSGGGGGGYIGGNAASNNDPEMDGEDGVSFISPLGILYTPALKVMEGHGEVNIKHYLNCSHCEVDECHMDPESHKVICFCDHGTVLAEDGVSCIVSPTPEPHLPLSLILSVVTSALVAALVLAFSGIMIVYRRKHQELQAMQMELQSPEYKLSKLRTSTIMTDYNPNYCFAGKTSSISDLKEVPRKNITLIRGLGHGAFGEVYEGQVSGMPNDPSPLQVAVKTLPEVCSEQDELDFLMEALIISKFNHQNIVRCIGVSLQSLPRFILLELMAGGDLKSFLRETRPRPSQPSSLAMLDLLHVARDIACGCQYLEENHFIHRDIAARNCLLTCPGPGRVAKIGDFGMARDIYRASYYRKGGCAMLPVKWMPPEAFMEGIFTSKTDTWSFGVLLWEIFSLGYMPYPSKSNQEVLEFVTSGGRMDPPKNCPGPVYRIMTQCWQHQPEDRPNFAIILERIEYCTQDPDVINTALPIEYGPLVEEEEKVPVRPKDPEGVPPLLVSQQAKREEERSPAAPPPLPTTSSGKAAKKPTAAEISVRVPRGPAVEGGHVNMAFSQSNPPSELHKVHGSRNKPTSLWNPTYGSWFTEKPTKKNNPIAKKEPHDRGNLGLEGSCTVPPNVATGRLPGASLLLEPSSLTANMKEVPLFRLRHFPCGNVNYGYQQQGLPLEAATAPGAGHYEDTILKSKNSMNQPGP
Please provide measured pIC50 for the entries that follow.
One number for each entry, as −log10 of the molar value.

compound	assayed.system	assay.value
CCc1cc2c(cc1N1CCC(N3CCN(C(=O)CNc4cccc5c4CN(C4CCC(=O)NC4=O)C5=O)CC3)CC1)C(C)(C)c1[nH]c3cc(C#N)ccc3c1C2=O (configuration not stated)	ALK tyrosine kinase receptor (Homo sapiens, UniProt Q9UM73)	8.33

API: the following record is the query input.
Query :: Item CCc1cc2c(cc1N1CCC(N3CCN(CCCC#Cc4cccc5c4CN(C4CCC(=O)NC4=O)C5=O)CC3)CC1)C(C)(C)c1[nH]c3cc(C#N)ccc3c1C2=O (configuration not stated) with ALK tyrosine kinase receptor (Homo sapiens, UniProt Q9UM73) - pIC50?
Result :: 8.48

###

# assayed.system: Protein cereblon/ALK tyrosine kinase receptor (Homo sapiens, UniProt Q9UM73+Q96SW2)
# Sequence (Q96SW2 whole entry partner): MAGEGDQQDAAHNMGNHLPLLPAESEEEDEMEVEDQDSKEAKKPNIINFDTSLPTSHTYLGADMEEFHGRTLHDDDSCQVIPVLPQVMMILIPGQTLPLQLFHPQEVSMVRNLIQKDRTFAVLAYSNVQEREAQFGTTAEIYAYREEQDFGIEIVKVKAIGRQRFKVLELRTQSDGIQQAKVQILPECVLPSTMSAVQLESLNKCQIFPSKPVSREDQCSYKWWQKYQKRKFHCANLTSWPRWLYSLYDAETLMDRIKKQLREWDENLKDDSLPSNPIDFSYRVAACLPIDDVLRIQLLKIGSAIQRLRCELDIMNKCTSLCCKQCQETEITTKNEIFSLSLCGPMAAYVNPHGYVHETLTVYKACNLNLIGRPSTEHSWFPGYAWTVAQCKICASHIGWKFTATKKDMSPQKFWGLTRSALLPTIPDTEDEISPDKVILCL
# Sequence (Q9UM73 19-1620 limits assumed): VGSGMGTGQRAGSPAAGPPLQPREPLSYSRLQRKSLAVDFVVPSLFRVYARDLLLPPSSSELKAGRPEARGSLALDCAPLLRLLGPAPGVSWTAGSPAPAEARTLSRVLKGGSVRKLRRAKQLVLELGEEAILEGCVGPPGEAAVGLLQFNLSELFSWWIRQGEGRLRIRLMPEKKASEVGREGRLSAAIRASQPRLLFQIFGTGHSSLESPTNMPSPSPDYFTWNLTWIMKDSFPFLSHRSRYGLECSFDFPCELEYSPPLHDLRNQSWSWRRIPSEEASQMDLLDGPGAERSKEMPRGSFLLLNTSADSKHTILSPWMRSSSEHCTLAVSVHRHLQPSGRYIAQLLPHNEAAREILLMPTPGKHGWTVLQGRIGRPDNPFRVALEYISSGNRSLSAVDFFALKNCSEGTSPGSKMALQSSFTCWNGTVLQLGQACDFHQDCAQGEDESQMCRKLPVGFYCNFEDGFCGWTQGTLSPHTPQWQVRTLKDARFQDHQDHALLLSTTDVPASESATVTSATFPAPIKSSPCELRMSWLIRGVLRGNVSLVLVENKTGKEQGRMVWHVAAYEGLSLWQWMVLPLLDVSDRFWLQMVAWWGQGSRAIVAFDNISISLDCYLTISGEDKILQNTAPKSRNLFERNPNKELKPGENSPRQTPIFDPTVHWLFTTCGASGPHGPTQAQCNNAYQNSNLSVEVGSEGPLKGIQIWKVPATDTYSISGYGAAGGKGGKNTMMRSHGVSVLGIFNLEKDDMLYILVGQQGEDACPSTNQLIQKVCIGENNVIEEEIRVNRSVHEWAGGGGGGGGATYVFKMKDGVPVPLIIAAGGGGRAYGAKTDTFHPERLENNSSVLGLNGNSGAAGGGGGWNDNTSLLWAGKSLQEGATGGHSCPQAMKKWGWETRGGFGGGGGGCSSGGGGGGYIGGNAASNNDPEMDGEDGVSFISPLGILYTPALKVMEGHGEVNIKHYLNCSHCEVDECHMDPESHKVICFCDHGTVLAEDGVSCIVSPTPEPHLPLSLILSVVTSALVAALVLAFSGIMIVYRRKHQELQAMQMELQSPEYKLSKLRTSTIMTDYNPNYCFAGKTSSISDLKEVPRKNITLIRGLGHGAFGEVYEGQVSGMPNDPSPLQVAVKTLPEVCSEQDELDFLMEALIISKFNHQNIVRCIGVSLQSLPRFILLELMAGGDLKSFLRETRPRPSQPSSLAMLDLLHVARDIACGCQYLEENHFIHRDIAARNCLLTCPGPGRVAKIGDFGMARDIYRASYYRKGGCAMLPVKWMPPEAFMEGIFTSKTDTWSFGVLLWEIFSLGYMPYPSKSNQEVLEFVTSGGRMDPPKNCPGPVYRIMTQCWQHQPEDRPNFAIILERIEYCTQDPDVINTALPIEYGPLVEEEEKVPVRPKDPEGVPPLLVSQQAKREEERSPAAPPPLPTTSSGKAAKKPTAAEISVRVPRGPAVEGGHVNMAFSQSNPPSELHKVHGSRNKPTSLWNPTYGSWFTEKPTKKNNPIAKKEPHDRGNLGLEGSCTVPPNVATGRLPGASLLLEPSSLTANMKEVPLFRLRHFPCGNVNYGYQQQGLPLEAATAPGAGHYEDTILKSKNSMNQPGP
# assay.info: Protac activity at CRBN/ALK in human SR cells assessed as protein abundance at 50 nM by Western blot analysis (reference value: 1)
# Format: cell-based
quantity.name: Activity

molecule	assay.value
CCc1cc2c(cc1N1CCC(N3CCN(C(=O)CCOCCOCCOCCOCCNc4cccc5c4C(=O)N(C4CCC(=O)NC4=O)C5=O)CC3)CC1)C(C)(C)c1[nH]c3cc(C#N)ccc3c1C2=O (stereo unspecified)	0.7
CCc1cc2c(cc1N1CCN(C(=O)CNc3cccc4c3C(=O)N(C3CCC(=O)NC3=O)C4=O)CC1)C(C)(C)c1[nH]c3cc(C#N)ccc3c1C2=O (stereo unspecified)	0.66
CCc1cc2c(cc1N1CCC(N3CCN(C(=O)CCCNc4cccc5c4C(=O)N(C4CCC(=O)NC4=O)C5=O)CC3)CC1)C(C)(C)c1[nH]c3cc(C#N)ccc3c1C2=O (stereo unspecified)	0.55
CCc1cc2c(cc1N1CCC(N3CCN(C(=O)CNc4cccc5c4CN(C4CCC(=O)NC4=O)C5=O)CC3)CC1)C(C)(C)c1[nH]c3cc(C#N)ccc3c1C2=O (stereo unspecified)	0.24
CCc1cc2c(cc1N1CCC(N3CCN(CCCCCC#Cc4cccc5c4CN(C4CCC(=O)NC4=O)C5=O)CC3)CC1)C(C)(C)c1[nH]c3cc(C#N)ccc3c1C2=O (stereo unspecified)	0.67

API: the following record is the query input.
Query :: Item CCc1cc2c(cc1N1CCC(N3CCN(CCCC#Cc4cccc5c4CN(C4CCC(=O)NC4=O)C5=O)CC3)CC1)C(C)(C)c1[nH]c3cc(C#N)ccc3c1C2=O (stereo unspecified) with Protein cereblon/ALK tyrosine kinase receptor (Homo sapiens, UniProt Q9UM73+Q96SW2) - Activity?
Result :: 0.37
